Values from patent US4372948A

Below is a list of entries, each paired with its recorded Reduction of cholesterol level after 6 hrs. value.
- Tested on: total cholesterol
- assay details: Anti-hyperlipemia activity, total cholesterol in blood
- Assay type: in vivo, rabbit (Japanese white male)
- condition: oral, 300 mg/kg once, 6 hrs.

O=C(Oc1ccccc1)c1ccc(NC2O[C@H](CO)[C@@H](O[C@@H]3O[C@H](CO)[C@@H](O)[C@H](O)[C@H]3O)[C@H](O)[C@H]2O)cc1 (stereo partly drawn) [Compound 9, phenyl p-aminobenzoate-N-cellobioside]; 40 mg/dL
O=C(OCC1CCCCC1)c1ccc(NC2OC[C@@H](O)[C@@H](O)[C@H]2O)cc1 (stereo partly drawn); 40 mg/dL

Next, consider the following compound.
Fill in: Reduction of cholesterol level after 6 hrs. of O=C(OC1CCCCC1)c1cccc(NC2O[C@H](CO)[C@@H](O)[C@H](O)[C@@H]2O)c1 (stereo partly drawn) [Compound 17, cyclohexyl m-aminobenzoate-N-D-mannoside] is ___
40 mg/dL
